- Tested on: COLO 205 colon
- protocol: NCI-60 one-dose screen, 48 h (100 = growth as untreated, 0 = no growth, -100 = all killed)
- condition context: 10 µM unless noted
Compounds without any hit were thinned out: in the full panel of roughly 83,000, 20% have a hit.
Could you please report measured growth for the items listed next?
// return numeric value only (unit: %, not printed)

### Prompt // returns reported growth for input CCN1CCN(C(=O)[C@]23CC[C@@H](C)[C@H](C)[C@@H]2C2=CC[C@@H]4[C@@]5(C)CCC(=O)C(C)(C)[C@@H]5CC[C@@]4(C)[C@]2(C)CC3)CC1
### Response -50.9

### Prompt Can you share its growth? I mean this molecule: CC1=C2[C@@H](CC1)[C@]1(C)O[C@@](C3CC3)(C[C@H]1OC(=O)CO)[C@H]2OC(=O)/C=C/c1ccccc1
### Response 116

### Prompt Recorded growth for CCCn1nc(C(=O)N2CCCCC2)c2c1CCC(N1CCC(c3ccncc3)CC1)C2 (stereo not given) , please?
### Response 115

### Prompt Field request: growth | item: CN1CCN(c2ccc(Nc3ncc(C(N)=O)c(NCCCNC(=O)C4CCC4)n3)cc2)CC1
### Response -5.21

### Prompt Can you look up the measured growth of COc1ccc(/C=N/C2=C(C#N)C(c3ccccc3)c3c(ccc4ccccc34)O2)cc1 (stereo not given) for me?
### Response 0.29

---

- Tested on: SK-MEL-2 melanoma
- protocol: NCI-60 one-dose screen, 48 h
- condition context: 10 µM unless noted
This is part of a sample that, as a whole, favours compounds with a hit. Of some 83,000 tested, about 20% had one in any assay. Active and inactive are the calls of the source. The calls were made as follows: active = growth percent below 10; inactive = the rest.
Could you please pick one outcome from this set? t = active, f = inactive

### Prompt What call does the record list for O=C1Nc2ccccc2/C1=C/c1cccn1CCCCCn1c2ccccc2c(=O)c2ccccc21 ?
### Response f

### Prompt Test call, this compound: COc1ccc(-c2nnc3n(C)c(=O)c4ccccc4n23)cc1O
### Response f

### Prompt How was N=c1c2c(-c3ccccc3)c(-c3ccccc3)oc2ncn1NC(=O)c1cccnc1 classified in this test?
### Response f

### Prompt Recorded test outcome, item COc1cc(OC)cc(-c2ccc(-c3ccc(C(=N)N)cn3)s2)c1
### Response f

### Prompt // outcome(item) with item = Cn1c(=O)c2c(nc(Nc3cc(=O)[nH]c(=O)[nH]3)n2Cc2ccccc2)n(C)c1=O
### Response t

### Prompt Recorded test call requested for O=C(CCN1CCOCC1)Nc1cccc(-n2cc(-c3ccncc3)c(-c3ccc(Cl)c(O)c3)n2)c1
### Response f

### Prompt How did this test come out for C=C1CC[C@@H]2[C@](C)(COC(C)=O)[C@H](OC(C)=O)CC[C@@]2(C)[C@@H]1CC(Nc1ccc(S(=O)(=O)Nc2nccs2)cc1)C1=CCOC1=O (some centres not stated) ?
### Response f

---

- Test system: SK-MEL-2 melanoma
- protocol: NCI-60 one-dose screen, 48 h
- condition context: 10 µM unless noted
Compounds without any hit were thinned out: in the full panel of roughly 83,000, 20% have a hit. The source made the active and inactive calls. Rule for the calls: active = growth percent below 10; inactive = the rest.
Pick one and only one: active, inactive

### Prompt // param item: O=C(NCc1cccnc1)/C(=C\c1ccc(Br)cc1)S(=O)(=O)c1ccccc1 ; yields the recorded call
### Response active

### Prompt Dear colleague, could you share the recorded outcome for CCN(CC)CC#CCOC(=O)[C@]1(C)CCC[C@]2(C)c3ccc(C(C)C)cc3CC[C@@H]12 when you have a moment?
### Response inactive

### Prompt Recorded call for C/C=C(\C)C(=O)N[C@H]1CC[C@]2(C)C3CC[C@@]4(C)C(CC[C@@H]4C(C)N(C)C)C3CCC2[C@H]1OC(C)=O (some centres not stated) ?
### Response active

### Prompt Status in this test for CCN1C(=O)/C(=c2\sc3n(c2=O)C2C(NN=3)N(CC)C(=O)N2CC)c2ccccc21 (configuration not stated) ?
### Response inactive

### Prompt Outcome logged for CCCCC(NC(=O)CN1C(=O)/C(=C/C(C)=C/c2ccccc2)SC1=S)C(=O)O (configuration not stated) in this assay:
### Response inactive

### Prompt Short answer needed: outcome of this test for Cc1nc2sc(C(=O)Nc3cccc4ncccc34)c(N)c2cc1C(C)O (configuration not stated) ?
### Response inactive

### Prompt In this assay, the call recorded for OCCN1CCN(c2cc(-c3cccc(OC(F)(F)F)c3)nc3ccc(N4CCCC4)cc23)CC1 was what?
### Response inactive

### Prompt Hi team, can someone confirm the assay call for COc1cc(/C=C(/c2ccccc2)[N+](=O)[O-])c(OC)c2c1OCO2 ?
### Response active

### Prompt I'd appreciate the recorded outcome for Nc1[nH]nc(Nc2ccccc2)c1-c1nc2ccccc2s1 from this test.
### Response inactive

### Prompt Per the assay record, what outcome was assigned to Nn1c(-c2ccc(Cl)cc2)nc2c(-c3ccc(Cl)cc3)nc3ccc(Cl)cc3c2c1=O ?
### Response inactive

### Prompt Tell me the recorded outcome of this test for CCCCCCNC(=O)Oc1ccc(/C(=C(/CC)Cc2ccccc2)c2ccc(OCCCN(C)C)cc2)cc1 .
### Response inactive

### Prompt GET /call?item= COCCn1cc(-c2csc(-c3cn(C)c4ccc(F)cc34)n2)c2cccnc21 returns the recorded outcome of this test.
### Response inactive

### Prompt Status in this test for Cc1ccc(S(=O)(=O)OC[C@@]2(C)CC[C@]3(C)CC[C@]4(C)C(=CC[C@@H]5[C@@]6(C)CCCNC(C)(C)[C@@H]6CC[C@]54C)[C@@H]3C2)cc1 ?
### Response active

### Prompt // outcome(item) with item = O=C(NNc1ccccc1)C1CCCN1 (configuration not stated)
### Response inactive

### Prompt Name the outcome recorded for COC(=O)/C=C1/SC(=Nc2ccc([N+](=O)[O-])cc2)N(CCc2c[nH]c3ccccc23)C1=O in the assay.
### Response inactive

### Prompt What did the test return for CCOc1ccccc1NC(=O)c1cc2ccccc2cc1O ?
### Response inactive

### Prompt Could you please tell me the result logged for Cc1n(Cc2ccc3ccccc3c2)c(Cl)c(Cl)[n+]1Cc1ccc2ccccc2c1 in this assay?
### Response inactive

### Prompt # outcome recorded in this test, key = COc1ccc(-c2ccc(-c3ccc(C(=N)N)cn3)o2)cc1Cl
### Response inactive

### Prompt How was CCCN1C(=O)/C(=c2\sc3n(c2=O)C2C(NN=3)N(CC)C(=O)N2CC)c2ccccc21 (configuration not stated) classified in this test?
### Response inactive

### Prompt Lab log entry: Cn1cc(-c2nonc2-c2cn(C)c3ccc(Br)cc23)c2ccccc21 — outcome as called in the assay?
### Response inactive

### Prompt Lab log entry: C[C@]12CCc3c(ccc4cc(O)ccc34)[C@@H]1C[C@H](O)[C@@H]2O — outcome as called in the assay?
### Response inactive

### Prompt What classification did CCCCCC#CC1OC23CCCCC2C(C#N)(C(=N)O3)C1(C#N)C#N (configuration not stated) end up with in this test?
### Response inactive

### Prompt Call for entry CCCCCCCCCCCCC[C@H](O)C[C@H](O)[C@H](C)N :
### Response inactive

### Prompt How did this test come out for CCCCCCCCN(CCCCCCCC)CC(O)c1cc(Cl)ccc1OC (configuration not stated) ?
### Response inactive

### Prompt Tell me the assay call for CCOC(=O)C1=C(C)N=C2SC=C(c3ccc(F)cc3)N2[C@H]1c1cn(-c2ccccc2)nc1-c1ccc(Cl)cc1 please.
### Response inactive

### Prompt State the result this test recorded for Clc1cccc(Nc2ncnc3ccc(-c4cncc(-n5cnnn5)c4)cc23)c1 .
### Response inactive

### Prompt For CN1CCCc2cc(/C=C3\SC(=S)N(C(Cc4ccc(O)cc4)C(=O)O)C3=O)ccc21 (configuration not stated) , what call appears in the results of this test?
### Response inactive

### Prompt Query: recorded result category for Cc1cc(N2CCCCC2)nc(NCc2cc(Nc3ccnc4cc(Cl)ccc34)ccc2F)n1 in this test
### Response active

### Prompt Entry CN1C(=O)/C(=C/c2ccc(C(=O)Nc3ncc(Cc4ccccc4Cl)s3)cc2)SC1=S : call = ?
### Response inactive

### Prompt # outcome recorded in this test, key = CCCCSc1ccc2nc(-c3ccc(OCCCN=C(N)N)cc3)cn2c1
### Response inactive

### Prompt Lab log entry: Cc1ccc(C(=O)Nc2ccc(CN3CCN(C)CC3)c(C(F)(F)F)c2)cc1C#Cc1cnc(N)cc1C#N — outcome as called in the assay?
### Response active

### Prompt Identify the outcome logged in this assay for the compound shown: CC(=O)c1c(C)nc(SCC(=O)Nc2ccc(Cl)cc2)n1-c1ccc(Cl)cc1
### Response inactive
